Taken from ChEMBL document CHEMBL4382231.

The entries below are paired with their reported MIC.
Test system: Saccharomyces cerevisiae
Test: Antifungal activity against Saccharomyces cerevisiae SC XH1549 cultured in YNB media after 48 hrs by broth microdilution method
Format: functional
Details: SC XH1549, 48 h
Number in µg/mL, nothing else.

Recorded MIC, per entry:
Qu. What value of MIC has been reported for the following molecule? C[C@@H]1[C@H](O)[C@@H](C)/C=C/C=C/C=C/C=C/C=C/C=C/C=C/[C@H](O[C@@H]2O[C@H](C)[C@@H](O)[C@H](N)[C@@H]2O)C[C@@H]2O[C@](O)(C[C@@H](O)C[C@@H](O)[C@H](O)CC[C@@H](O)C[C@@H](O)CC(=O)O[C@H]1C)C[C@H](O)[C@H]2C(=O)O
Ans. 2.5

Qu. Recorded MIC of CCOc1ccccc1OS(=O)(=O)NC(=O)Nc1nc(OC)cc(OC)n1 , please.
Ans. 5

Qu. Please look up its MIC: CCOC(=O)c1ccccc1OS(=O)(=O)[N-]C(=O)Nc1nc(OC)cc(OC)n1.[Na+]
Ans. 5

Qu. MIC for CCOC(=O)c1ccccc1OS(=O)(=O)NC(=O)Nc1nc(OC)cc(OC)n1 ?
Ans. 5

Note: attention shifts to another entry.
Qu. // returns reported MIC for input CCOc1ccccc1OS(=O)(=O)[N-]C(=O)Nc1nc(OC)cc(OC)n1.[Na+]
Ans. 5
